Origin of values: patent US20180362632A1

Measured pEC50 of individual entries
- target of assay: recombinant human GM-CSF protein (human, UniProt P04141 18-144)
- Sequence (P04141 18-144): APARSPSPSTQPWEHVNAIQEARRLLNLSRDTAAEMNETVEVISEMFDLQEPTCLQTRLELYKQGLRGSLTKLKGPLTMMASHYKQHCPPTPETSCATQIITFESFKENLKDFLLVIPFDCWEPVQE
- assay: ELISA
Remember the convention: pEC50 equals -log10 of concentration in molar.

What pEC50 value was documented for this binder, Hu50C5-14 (antibody, V domains shown) VH: EVQLVQSGAEVKKPGSSVKVSCKASGYIFSPYSIHWVRQAPGQGLEWIGYINPSTGYIEYNQHFKDRVTITADKSTSTAYMELRSLRSEDTAVYYCARGGDYEGYFDYWGQGTTVTVSS VL: DIQMTQSPSSLSASVGDRVTITCRLNENIYSFLAWYQQKPGKAPKLLVYNAETLAEDVPSRFSGSGSGTQFTLTISSLQPEDFATYYCQQHYGTPYTFGGGTKVEIK ?
8.71

Here is the next binder: Hu50C5-4 (antibody, V domains shown) VH: EVQLVQSGAEVKKPGSSVKVSCKASGGTFSPYSIHWVRQAPGQGLEWMGYINPSTGYIEYNQHFKDRVTITADKSTSTAYMELRSLRSEDTAVYYCARGGDYEGYFDYWGQGTTVTVSS VL: DIQMTQSPSSLSASVGDRVTITCRLNENIYSFLAWYQQKPGKAPKLLVYNAETLAEDVPSRFSGSGSGTQFTLTISSLQPEDFATYYCQQHYGTPYTFGGGTKVEIK
8.93
